assayed-target: 5'-AMP-activated protein kinase catalytic subunit alpha-1 (Homo sapiens) (UniProt Q13131);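 also: mean percent inhibition of the AMPK A1B1G1 complex (alpha1 beta1 gamma1) in the GSK PKIS kinase inhibitor screen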
Sequence (Q13131 whole entry, looked up): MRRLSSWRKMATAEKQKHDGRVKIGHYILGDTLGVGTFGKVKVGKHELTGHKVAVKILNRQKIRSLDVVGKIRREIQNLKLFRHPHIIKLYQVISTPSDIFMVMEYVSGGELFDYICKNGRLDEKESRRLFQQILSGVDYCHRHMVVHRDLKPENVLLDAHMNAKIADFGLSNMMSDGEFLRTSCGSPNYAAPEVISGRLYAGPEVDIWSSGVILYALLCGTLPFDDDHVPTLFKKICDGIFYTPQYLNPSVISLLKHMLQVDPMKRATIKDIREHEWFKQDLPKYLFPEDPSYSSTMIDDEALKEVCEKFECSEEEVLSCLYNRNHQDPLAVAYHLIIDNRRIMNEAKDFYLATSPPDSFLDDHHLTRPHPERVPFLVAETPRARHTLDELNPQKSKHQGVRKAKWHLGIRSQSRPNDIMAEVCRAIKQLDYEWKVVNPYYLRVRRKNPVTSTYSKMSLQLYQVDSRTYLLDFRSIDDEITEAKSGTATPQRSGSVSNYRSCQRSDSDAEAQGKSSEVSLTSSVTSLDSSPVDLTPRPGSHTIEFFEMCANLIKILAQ
condition-info: at 1 µM

# line-notation, inhibition, %
measured = [
    ("CC(C)(CO)CNC(=O)c1ccc2c(c1)/C(=N/Nc1ccc(S(N)(=O)=O)cc1)C(=O)N2", 72.3),
    ("COc1ccc(-c2oc3ncnc(N)c3c2-c2ccc(NC(=O)Nc3cc(C(F)(F)F)ccc3F)cc2)cc1", 8.8),
    ("c1ccc(COc2ccc(Nc3ncnc4ccc(-c5ccco5)cc34)cc2)cc1", 2.29),
    ("Clc1ccc(-c2nn3ncccc3c2-c2ccnc(Nc3ccccc3)n2)cc1", 0.54),
    ("Cc1cccc2c1NC(=O)/C2=N\\Nc1ccc(S(N)(=O)=O)cc1", 4.3),
    ("COc1cccc(-c2c[nH]c3c(N/N=C/c4ccncc4)ncnc23)c1", 6.84),
    ("O=C(O[C@H]1CN[C@H](C#Cc2cc3ncnc(Nc4ccc(Cc5ccccc5)cc4)c3s2)C1)N1CCOCC1", 1.94),
    ("COc1cc(Nc2nccc(Nc3ccc4c(C)n[nH]c4c3)n2)cc(OC)c1OC", 1.71),
    ("CNC(=O)c1cccc(C#Cc2cncnc2Nc2ccc(OCc3cccc(F)c3)c(Cl)c2)c1", 2.17),
    ("CCN(CC)S(=O)(=O)c1ccc(OC)c(Nc2ncc(-c3ccccc3)o2)c1", 3.48),
    ("Nc1ncc(-c2cccc(S(N)(=O)=O)c2)c2scc(-c3ccc(F)c(Cl)c3)c12", 4.69),
    ("CCn1c(-c2nonc2N)nc2c(C#CC(C)(C)O)ncc(OC3CCNCC3)c21", 82.6),
    ("CC(C)COC(=O)c1ccc2c(c1)/C(=C/Nc1ccc(S(N)(=O)=O)cc1)C(=O)N2", 72.3),
    ("O=S(=O)(CCNCc1ccc(-c2ccc3ncnc(Nc4ccc(OCc5cccc(F)c5)c(Cl)c4)c3c2)o1)c1ccccc1", 5.94),
    ("CC(=O)NCc1cccc(C#Cc2cncnc2Nc2ccc(OCc3cccc(F)c3)c(Cl)c2)c1", 3.03),
    ("c1ccc(-c2nc3n(c2-c2ccc4c(c2)OCO4)CCC3)nc1", 2.34),
    ("Nc1nc(-c2cccc(Cl)c2)c(-c2ccc3ncccc3n2)s1", 5.53),
    ("Fc1ccc(-c2nn3ccccc3c2-c2ccncc2)cc1", -0.08),
    ("CCN1CCC(CC(=O)Nc2n[nH]c3nnc(-c4cccc(F)c4F)cc23)CC1", 3.36),
    ("Cc1ccc(O)cc1Nc1ccnc2cc(-c3ccccn3)ccc12", 4.05),
    ("[O-][S+]1CCN(Cc2ccc(-c3ccc4ncnc(Nc5ccc(OCc6cccc(F)c6)c(Cl)c5)c4c3)o2)CC1", 5.6),
    ("CCn1c(-c2nonc2N)nc2cnc(Oc3cccc(NC(=O)c4ccc(N(C)C)cc4)c3)cc21", 2.17),
    ("COC(=O)Nc1nc2ccc(S(=O)(=O)c3ccc(NC(=O)Nc4cc(C(F)(F)F)ccc4F)cc3)cc2[nH]1", 1.58),
    ("COC(=O)Nc1nc2ccc(Oc3ccc(NC(=O)Nc4cccc(Cl)c4)cc3)cc2[nH]1", 0.58),
    ("NS(=O)(=O)c1ccc(Nc2ncc(-c3ccccc3)o2)cc1", 11.5),
    ("NS(=O)(=O)c1ccc(N/N=C2\\C(=O)Nc3ccc4ncccc4c32)cc1", 82.7),
    ("COc1ccc2[nH]c3c4[nH]c5ccc(OC)cc5c4c4c(c3c2c1)C(=O)NC4=O", 78),
    ("CCn1cc(-c2ccnc3[nH]ccc23)c(-c2cccc(NC(=O)Nc3ccc(OCc4ccccc4)cc3)c2)n1", 1.82),
    ("CNC(=O)c1cc(-c2ccc(F)cc2)cc(-c2ccc(S(=O)(=O)N3CCCC3)cc2)c1N", 2.03),
    ("O=C(Nc1n[nH]c2cc(-c3ccc(F)cc3)ccc12)C1CC1", 4.56),
    ("CCn1c(-c2nonc2N)nc2ccccc21", 1.63),
    ("COc1ccc2c(-c3ccnc(Nc4cccc(OC(F)(F)F)c4)n3)cnn2n1", 7.03),
    ("COc1cc(/C=N/Nc2ncnc3[nH]ncc23)ccc1O", 20.5),
]

====

assayed-target: Phosphorylase b kinase gamma catalytic chain, skeletal muscle/heart isoform (Homo sapiens) (UniProt Q16816);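 also: each value is a mean percent inhibition of PHKG1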
Sequence (Q16816 whole entry, looked up, canonical isoform): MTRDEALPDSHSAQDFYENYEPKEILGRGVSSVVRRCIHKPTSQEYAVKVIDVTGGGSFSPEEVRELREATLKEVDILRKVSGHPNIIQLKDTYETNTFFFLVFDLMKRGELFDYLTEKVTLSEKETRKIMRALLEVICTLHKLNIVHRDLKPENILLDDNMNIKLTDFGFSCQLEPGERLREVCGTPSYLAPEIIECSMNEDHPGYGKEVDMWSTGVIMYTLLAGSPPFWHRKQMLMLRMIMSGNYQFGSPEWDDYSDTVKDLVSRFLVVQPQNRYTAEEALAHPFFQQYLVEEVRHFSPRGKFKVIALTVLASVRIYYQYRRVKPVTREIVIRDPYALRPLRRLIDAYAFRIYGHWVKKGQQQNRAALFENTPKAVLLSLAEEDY
condition-info: at 1 µM
Our labelling divides records by inhibition into ranges: lower level: < 3%; middle level: ≥ 3% and < 6%; upper level: ≥ 6%

# line-notation, class-label
data = [
    ("c1cc(-c2cnn3nc(N4CCOCC4)ccc23)nc(NC2CC2)n1", "upper level"),
    ("CNC(=O)c1cncc(/C=C/c2ccccc2Cl)c1", "lower level"),
    ("CCN1CCC(CC(=O)Nc2n[nH]c3nnc(-c4cccc(F)c4F)cc23)CC1", "middle level"),
    ("CN(C)CCOc1ccc(-c2nc(-c3ccncc3)c(-c3ccc4c(c3)CC/C4=N\\O)[nH]2)cc1", "upper level"),
    ("COC(=O)Nc1nc2ccc(S(=O)(=O)c3ccc(NC(=O)Nc4cc(C(F)(F)F)ccc4F)cc3)cc2[nH]1", "lower level"),
    ("CCCN1CCC(c2ccc(Nc3nc(Nc4cc(F)ccc4C(N)=O)c4cc[nH]c4n3)c(OC)c2)CC1", "upper level"),
    ("COc1ccc(-c2cc3c(N)ncnc3o2)cc1", "lower level"),
    ("Nc1ncc(-c2cccc(S(N)(=O)=O)c2)c2scc(-c3ccc(F)c(Cl)c3)c12", "middle level"),
    ("Nc1nc(-c2ccc(F)cc2)c(-c2ccc3ncccc3n2)s1", "upper level"),
    ("O=C(O[C@H]1CN[C@H](C#Cc2cc3ncnc(Nc4ccc(Cc5ccccc5)cc4)c3s2)C1)N1CCOCC1", "middle level"),
    ("CCn1c(-c2nonc2N)nc2cnc(Oc3cccc(NC(=O)c4ccc(N(C)C)cc4)c3)cc21", "lower level"),
    ("COc1cc2ncn(-c3cc(OCc4ccccc4C(F)(F)F)c(C(=O)N(C)C)s3)c2cc1OC", "lower level"),
    ("O=C(Nc1n[nH]c2cc(-c3ccc(F)cc3)ccc12)C1CC1", "upper level"),
    ("CNC(=O)c1cc(-c2ccc(F)cc2)cc(-c2ccc(S(=O)(=O)N3CCCC3)cc2)c1N", "middle level"),
]

====

assayed-target: Casein kinase I isoform alpha (Homo sapiens);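 also: each value is a mean percent inhibition of the kinase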
condition-info: at 1 µM

# line-notation, inhibition
rows = [
    ("Cc1cccc(Nc2ncc(-c3ccccc3)o2)c1", "9.63%"),
    ("CNC(=O)c1cncc(/C=C/c2ccccc2Cl)c1", "-0.31%"),
    ("CN1CCC(n2cnc(-c3ccc(F)cc3)c2-c2ccnc(N)n2)CC1", "73.1%"),
    ("COc1cccc(-c2c[nH]c3c(N/N=C/c4ccncc4)ncnc23)c1", "7.98%"),
    ("COC(=O)Nc1nc2ccc(S(=O)(=O)c3ccc(NC(=O)Nc4cc(C(F)(F)F)ccc4F)cc3)cc2[nH]1", "5.12%"),
    ("COc1ccc(-c2cc(-c3c[nH]nc3-c3ccccn3)ccn2)cc1", "11.5%"),
    ("CC(=O)NCc1cccc(C#Cc2cncnc2Nc2ccc(OCc3cccc(F)c3)c(Cl)c2)c1", "-0.4%"),
]

====

assayed-target: Serine/threonine-protein kinase pim-1 (Homo sapiens) (UniProt P11309);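 also: reported figures are mean percent inhibition of PIM1 kinase activity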
Sequence (P11309 whole entry, looked up): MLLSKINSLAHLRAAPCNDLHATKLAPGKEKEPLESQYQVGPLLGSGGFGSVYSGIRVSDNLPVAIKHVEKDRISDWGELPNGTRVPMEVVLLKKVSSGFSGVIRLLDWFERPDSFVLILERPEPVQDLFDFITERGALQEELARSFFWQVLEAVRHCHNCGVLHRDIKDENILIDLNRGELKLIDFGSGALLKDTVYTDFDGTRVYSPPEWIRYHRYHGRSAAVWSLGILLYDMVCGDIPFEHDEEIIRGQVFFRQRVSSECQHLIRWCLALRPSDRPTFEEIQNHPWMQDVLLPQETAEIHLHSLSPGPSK
condition-info: at 1 µM

# line-notation, unit-abbreviation, inhibition
records = [
    ("CN1CCC(n2cnc(-c3ccc(F)cc3)c2-c2ccnc(Nc3ccccc3)n2)CC1", "%", 2.62),
    ("c1ccc(COc2ccc(Nc3ncnc4ccc(-c5ccco5)cc34)cc2)cc1", "%", 0.42),
    ("COc1ccc(-c2nn3ncccc3c2-c2ccnc(Nc3ccc4c(c3)OCCO4)n2)cc1", "%", -0.36),
    ("Clc1ccc(-c2nn3ncccc3c2-c2ccnc(Nc3ccccc3)n2)cc1", "%", 0.33),
    ("Fc1ccc(-c2nn3ncccc3c2-c2ccnc(Nc3ccc4c(c3)OCCO4)n2)cc1", "%", 1.21),
    ("CCN(CC)S(=O)(=O)c1ccc(OC)c(Nc2ncc(-c3ccccc3)o2)c1", "%", 0.97),
    ("COc1ccc(-c2cc(-c3c[nH]nc3-c3ccccn3)ccn2)cc1", "%", 0.03),
    ("CCn1cc(-c2ccnc3[nH]ccc23)c(-c2cccc(NC(=O)Nc3ccc(OCc4ccccc4)cc3)c2)n1", "%", -1.25),
    ("CCCN1CCC(c2ccc(Nc3nc(Nc4cc(F)ccc4C(N)=O)c4cc[nH]c4n3)c(OC)c2)CC1", "%", 45.3),
    ("Fc1ccc(-c2cc(-c3c[nH]nc3-c3ccccn3)ccn2)cc1", "%", 0.76),
    ("CS(=O)(=O)CCNCc1ccc(-c2ccc3ncnc(Nc4ccc(OCc5ccccc5)c(C(F)(F)F)c4)c3c2)o1", "%", 1.31),
    ("N#Cc1c(NC(=O)c2ccc(F)cc2)sc2c1CCCC2", "%", -0.95),
    ("Cc1ccc2c(-c3ccnc(Nc4ccccc4)n3)c(-c3ccc(F)cc3)nn2n1", "%", -0.05),
    ("CC(=O)NCc1cccc(C#Cc2cncnc2Nc2ccc(OCc3cccc(F)c3)c(Cl)c2)c1", "%", 0.22),
    ("COc1ccc(-c2oc3ncnc(N)c3c2-c2ccc(NC(=O)Nc3cc(C(F)(F)F)ccc3F)cc2)cc1", "%", 0.75),
    ("CN(C)CCOc1ccc(-c2nc(-c3ccncc3)c(-c3ccc4c(c3)CC/C4=N\\O)[nH]2)cc1", "%", 1.48),
    ("CS(=O)(=O)CCNCc1coc(-c2ccc3ncnc(Nc4ccc(OCc5ccccc5)cc4)c3c2)c1", "%", 1.25),
    ("Nc1ncc(-c2cccc(S(N)(=O)=O)c2)c2scc(-c3ccc(F)c(Cl)c3)c12", "%", 0.67),
    ("CCn1c(-c2nonc2N)nc2ccccc21", "%", 4.54),
    ("Fc1ccc(-c2nn3ccccc3c2-c2ccncc2)cc1", "%", 0.04),
    ("N#Cc1c(NC(=O)CN2CCOCC2)sc2c1CCCC2", "%", 0.16),
    ("O=C(O[C@H]1CN[C@H](C#Cc2cc3ncnc(Nc4ccc(Cc5ccccc5)cc4)c3s2)C1)N1CCOCC1", "%", 0.55),
    ("COc1ccc2[nH]c3c4[nH]c5ccc(OC)cc5c4c4c(c3c2c1)C(=O)NC4=O", "%", 74.2),
    ("CCn1c(-c2nonc2N)nc2c(C#CC(C)(C)O)nc(OC[C@H](N)c3ccccc3)cc21", "%", 3.63),
    ("CCn1c(-c2nonc2N)nc2c(C#CC(C)(C)O)ncc(OC3CCNCC3)c21", "%", 24.1),
    ("CNC(=O)c1cncc(/C=C/c2ccccc2Cl)c1", "%", 0.89),
    ("O=S(=O)(CCNCc1ccc(-c2ccc3ncnc(Nc4ccc(OCc5cccc(F)c5)c(Cl)c4)c3c2)o1)c1ccccc1", "%", 1.9),
    ("NS(=O)(=O)c1ccc(N/N=C2\\C(=O)Nc3ccc4ncccc4c32)cc1", "%", 15.9),
    ("COc1cc(N2CCN(C(C)C)CC2)ccc1Nc1nc(Nc2ccc(F)cc2C(N)=O)c2cc[nH]c2n1", "%", 25.3),
    ("CC(=O)Nc1cccc(C#Cc2cncnc2Nc2ccc(OCc3cccc(F)c3)c(Cl)c2)c1", "%", 0.75),
    ("Nc1nc(-c2ccc(F)cc2)c(-c2ccc3ncccc3n2)s1", "%", 2.38),
    ("Cc1cccc(Nc2ncc(-c3ccccc3)o2)c1", "%", 0.94),
]
